System: anti-BSA-cmoCLA(ae) antibodies
measurement protocol: Indirect competitive ELISA (icELISA), variants by coating antigen
Assay type: binding, rabbit
condition description: coating antigen OVA-aecAZI(dma); CLA = 100
Overview of reported CR across a group of compounds:
observation type: CR (%)

{"compound": "CCCNC[C@]1(O)[C@H](C)O[C@@H](O[C@H]2[C@H](C)[C@@H](O[C@@H]3O[C@H](C)C[C@H](N(C)C)[C@H]3O)[C@](C)(O)C[C@@H](C)CN[C@H](C)[C@@H](O)[C@](C)(O)[C@@H](CC)OC(=O)[C@@H]2C)C[C@@]1(C)OC [TUL, tulathromycin]", "observation type": "CR", "observed value": 0.04}
{"compound": "CC[C@H]1OC(=O)[C@H](C)[C@@H](O[C@H]2C[C@@](C)(OC)[C@@H](O)[C@H](C)O2)[C@H](C)[C@@H](O[C@@H]2O[C@H](C)C[C@H](N(C)C)[C@H]2O)[C@](C)(O)C[C@@H](C)[C@@H]2N[C@@H](COCCOC)O[C@H]([C@H]2C)[C@]1(C)O [DIR, dirithromycin]", "observation type": "CR", "observed value": 28.9}
{"compound": "CCOC(=O)CCC(=O)O[C@H]1[C@H](O[C@@H]2[C@@H](C)[C@H](O[C@H]3C[C@@](C)(OC)[C@@H](O)[C@H](C)O3)[C@@H](C)C(=O)O[C@H](CC)[C@@](C)(O)[C@H](O)[C@@H](C)C(=O)[C@H](C)C[C@@]2(C)O)O[C@H](C)C[C@@H]1N(C)C [ESE, erythromycin ethyl succinate]", "observation type": "CR", "observed value": 44.6}
{"compound": "CO[C@H]1C[C@H](O[C@H]2[C@H](C)[C@@H](O[C@@H]3O[C@H](C)C[C@H](N(C)C)[C@H]3O)[C@@H](C)C[C@@]3(CO3)C(=O)[C@H](C)[C@@H](O)[C@@H](C)[C@@H](C)OC(=O)[C@@H]2C)O[C@@H](C)[C@@H]1O [OLE, oleandomycin]", "observation type": "CR", "observed value": 0.05}
